system: 485368-065-R4-J2-PDC spheroids with HUVEC/MSC, viability; assay: Anticancer human tumor 485368-065-R4-J2-PDC patient-derived pancreatic carcinoma cell line growth inhibition [CLK]; conditions: second compound 0.0316 µM; first compound 0.1 µM; stronger effect = lower value
viability, T/C values, listed per item

Consider the worked cases shown below.
- COMPOUND: "CCN1CCN(Cc2ccc(Nc3ncc(F)c(-c4cc(F)c5nc(C)n(C(C)C)c5c4)n3)nc2)CC1 + CN1CCN(c2cc(C(=O)Nc3cc4cc(-c5cnn(C)c5)ccc4cn3)ccn2)CC1"
  RESULT: "138%"
- COMPOUND: "O=c1[nH]cc(F)c(=O)[nH]1 + CN1CCN(c2cc(C(=O)Nc3cc4cc(-c5cnn(C)c5)ccc4cn3)ccn2)CC1"
  RESULT: "108%"

Tell me the measured viability, T/C of CC1(C)CCC(CN2CCN(c3ccc(C(=O)NS(=O)(=O)c4ccc(NCC5CCOCC5)c([N+](=O)[O-])c4)c(Oc4cnc5[nH]ccc5c4)c3)CC2)=C(c2ccc(Cl)cc2)C1 + CN1CCN(c2cc(C(=O)Nc3cc4cc(-c5cnn(C)c5)ccc4cn3)ccn2)CC1 , please.
112%

Same for Cn1ncnc1[C@H]1c2n[nH]c(=O)c3cc(F)cc(c23)N[C@@H]1c1ccc(F)cc1 + CN1CCN(c2cc(C(=O)Nc3cc4cc(-c5cnn(C)c5)ccc4cn3)ccn2)CC1
88.7%

Same for C#Cc1c(F)ccc2cc(O)cc(-c3ncc4c(N5CC6CCC(C5)N6)nc(OCC56CCCN5CC(F)C6)nc4c3F)c12 (stereo not given) + CNC(=O)c1ccc(Nc2nc(OC3CCCC3)c3c(-c4ccc5nc(C)oc5c4)c[nH]c3n2)c(OC)c1
115%

Same for CCCS(=O)(=O)Nc1ccc(F)c(C(=O)c2c[nH]c3ncc(-c4ccc(Cl)cc4)cc23)c1F + CNC(=O)c1ccc(Nc2nc(OC3CCCC3)c3c(-c4ccc5nc(C)oc5c4)c[nH]c3n2)c(OC)c1
95.1%

Same for COC1C=CCC(C)C(C)S(=O)(=O)NC(=O)c2ccc3c(c2)N(CC2CCC21)CC1(CCCc2cc(Cl)ccc21)CO3 (stereo not given) + CN1CCN(c2cc(C(=O)Nc3cc4cc(-c5cnn(C)c5)ccc4cn3)ccn2)CC1
106%

Same for Nc1ccn(C2OC(CO)C(O)C2(F)F)c(=O)n1 (stereo not given) + CNC(=O)c1ccc(Nc2nc(OC3CCCC3)c3c(-c4ccc5nc(C)oc5c4)c[nH]c3n2)c(OC)c1
45%

Same for COc1ccc([C@@H](O)c2cc(-c3ncnc4cc(N5CCOCC5)ccc34)c(F)cc2Cl)nn1 + CNC(=O)c1ccc(Nc2nc(OC3CCCC3)c3c(-c4ccc5nc(C)oc5c4)c[nH]c3n2)c(OC)c1
96.7%

Same for CC(=O)O[C@H]1C(=O)[C@@]2(C)[C@H]([C@H](OC(=O)c3ccccc3)[C@]3(O)C[C@H](OC(=O)[C@H](O)[C@@H](NC(=O)c4ccccc4)c4ccccc4)C(C)=C1C3(C)C)[C@]1(OC(C)=O)CO[C@@H]1C[C@@H]2O + CNC(=O)c1ccc(Nc2nc(OC3CCCC3)c3c(-c4ccc5nc(C)oc5c4)c[nH]c3n2)c(OC)c1
49.2%

====

system: 485368-065-R4-J2-PDC spheroids with HUVEC/MSC, viability; assay: Anticancer human tumor 485368-065-R4-J2-PDC cell line growth inhibition [CLK]; conditions: second compound 0.1 µM; first compound 0.00949 µM; stronger effect = lower value;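 further: spheroids exposed to compounds for seven days; 100% = DMSO vehicle control wells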
READOUT LABEL: viability, T/C (%)
Give just the number in %; leave the unit off.

Consider the worked cases shown below.
- COMPOUND: "C=CC(=O)Nc1cc(Nc2nccc(-c3cn(C)c4ccccc34)n2)c(OC)cc1N(C)CCN(C)C + CN1CCN(c2cc(C(=O)Nc3cc4cc(-c5cnn(C)c5)ccc4cn3)ccn2)CC1"
  READOUT LABEL: "viability, T/C"
  RESULT NUMBER: 112
- COMPOUND: "NC(=O)C(=Cn1cnc(-c2cc(C(F)(F)F)cc(C(F)(F)F)c2)n1)c1cncnc1 + CNC(=O)c1ccc(Nc2nc(OC3CCCC3)c3c(-c4ccc5nc(C)oc5c4)c[nH]c3n2)c(OC)c1"
  READOUT LABEL: "viability, T/C"
  RESULT NUMBER: 96.4

Next:
Tell me the measured viability, T/C of CC(C)CC(NC(=O)C(Cc1ccccc1)NC(=O)c1cnccn1)B(O)O (stereo not drawn) + CN1CCN(c2cc(C(=O)Nc3cc4cc(-c5cnn(C)c5)ccc4cn3)ccn2)CC1 , please.
24.4
